test system: HT-29; experiment: Cytotoxicity against human HT-29 cells assessed as reduction in cell viability incubated for 48 hrs by MTT assay; assay type: functional, cell-based; settings: HT-29, 48 h
Task for the reader: assign each of the following compounds its reported IC50.
// units = µM; emit number, no label

response.value for O=C1c2ccc3c4c(c(NCc5cn(CCS[C@H]6O[C@H](CO)[C@@H](O)[C@H](O)[C@@H]6O)nn5)cc(c24)C(=O)N1CCN1CCOCC1)C(=O)N(CCN1CCOCC1)C3=O (field: IC50) = 3.39

response.value for CN(C)CCCN1C(=O)c2ccc3c4c(c(NCc5cn(CCO[C@@H]6O[C@H](CO)[C@@H](O)[C@H](O)[C@H]6O)nn5)cc(c24)C1=O)C(=O)N(CCCN(C)C)C3=O (field: IC50) = 0.46

response.value for O=C1c2ccc3c4c(c(NCc5cn(CCS[C@@H]6O[C@H](CO)[C@@H](O[C@H]7O[C@H](CO)[C@@H](O)[C@H](O)[C@H]7O)[C@H](O)[C@H]6O)nn5)cc(c24)C(=O)N1CCN1CCOCC1)C(=O)N(CCN1CCOCC1)C3=O (field: IC50) = 13.7

Ref: ChEMBL document CHEMBL5154742
